I'd appreciate it if you could supply pest or weed control at 140 g/ha values for the items below.
test system: Key Broadleaf Weed and Crop Species; experiment: Post-emergent Test II herbicidal activity (Table 5); type: in vivo; conditions: post-emergence, 336 h; VIOTR: wild pansy (Viola tricolor); 140 g ai/ha; post-emergent; 14 days after application; read-out: Visual Growth Reduction (%) 14 Days After Application VIOTR

1. COC(=O)c1nc(-c2cc(F)c(C#N)cc2F)c(F)c(N)c1Cl [Compound 198] :: 60 to 74%
2. COc1c(N)nc(-c2ccc(C#N)cc2)nc1C(=O)O [Compound 25] :: 0 to 29%
3. COC(=O)c1nc(-c2cc(F)ccc2F)c(F)c(N)c1Cl [Compound 189] :: 0 to 29%
4. COc1c(N)nc(-c2ccc(OC(F)(F)F)cc2)nc1C(=O)O [Compound 102] :: 0 to 29%
5. COC(=O)c1nc(-c2ccc(C#N)cc2)c(C)c(N)c1Cl [Compound 83] :: 0 to 29%

For each entry beneath this line, provide reported pest or weed control at 140 g/ha.
1. Nc1cc(-c2ccc(I)cc2F)nc(C(=O)O)c1Cl [Compound 124]
2. Nc1cc(-c2ccc(OC(F)F)cc2)nc(C(=O)O)c1Cl [Compound 10]
3. COC(=O)c1nc(-c2cc(F)c(C#N)cc2F)cc(N)c1Cl [Compound 202]

Result ::
["95 to 100%", "0 to 29%", "60 to 74%"]
